Every entry's value here was drawn from patent US20240228468A1.

- STUDY_SYSTEM: Human M4 (Homo sapiens, UniProt P08173)
- Construct: expressed in transfected cells; host or cells: CHO-K1 (ATCC), co-transfected with chimeric G protein Gqi5
- Sequence (P08173 whole entry): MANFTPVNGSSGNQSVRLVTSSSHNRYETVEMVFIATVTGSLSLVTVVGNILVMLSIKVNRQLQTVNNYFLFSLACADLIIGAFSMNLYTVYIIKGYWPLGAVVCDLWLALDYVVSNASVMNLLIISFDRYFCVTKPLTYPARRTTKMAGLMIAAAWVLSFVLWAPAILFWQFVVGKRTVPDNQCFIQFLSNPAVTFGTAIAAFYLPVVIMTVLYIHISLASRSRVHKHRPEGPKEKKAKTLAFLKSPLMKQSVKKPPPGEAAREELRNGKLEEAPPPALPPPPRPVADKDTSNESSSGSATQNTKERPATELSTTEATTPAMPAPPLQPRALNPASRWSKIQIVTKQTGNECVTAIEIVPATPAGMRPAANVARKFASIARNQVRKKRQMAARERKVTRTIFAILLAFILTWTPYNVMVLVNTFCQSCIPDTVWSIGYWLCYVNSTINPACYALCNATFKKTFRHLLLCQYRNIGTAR
- EXPERIMENT_NOTES: mAChR M4 cell-based functional assay (calcium flux, antagonism of EC80 acetylcholine response)
- EXPERIMENTAL_SETUP: M4/Gqi5/CHO-K1 cells; % ACh maximum at 30 μM
- Experimental: Human or rat M4 cDNA, along with the chimeric G protein Gqi5, were transfected into Chinese hamster ovary (CHO-K1) cells purchased from the American Type Culture Collection using Lipofectamine2000. […] Calcium flux was measured using the Functional Drug Screening System (FDSS) 6000 or 7000 (Hamamatsu Corporation, Tokyo, Japan) as an increase in the fluorescent static ratio. […] Agonist activity was analyzed as a concentration-dependent increase in calcium mobilization upon compound addition. […]

{"MOLECULE": "[2H]C([2H])(C1CCOCC1)N1C[C@H]2C[C@H](Nc3ccc(-c4ccccc4NC(C)=O)nn3)C[C@H]2C1", "Human M4 Emin (% ACh maximum at 30 μM), %": 3}
{"MOLECULE": "[2H]C([2H])([2H])C(=O)Nc1ccc(-c2ccc(N[C@H]3C[C@@H]4CN(C([2H])([2H])C5CCOCC5)C[C@@H]4C3)nn2)cc1 (single isomer, unassigned)", "Human M4 Emin (% ACh maximum at 30 μM), %": 3}
{"MOLECULE": "[2H]C([2H])([2H])C(=O)Nc1ccc(-c2ccc(N[C@H]3C[C@@H]4CN(CC5CCOCC5)C[C@@H]4C3)nn2)cc1 (single isomer, unassigned)", "Human M4 Emin (% ACh maximum at 30 μM), %": 3}
{"MOLECULE": "[2H]C([2H])([2H])C(=O)Nc1ccccc1-c1ccc(N[C@H]2C[C@@H]3CN(C([2H])([2H])C4CCOCC4)C[C@@H]3C2)nn1", "Human M4 Emin (% ACh maximum at 30 μM), %": 4}
{"MOLECULE": "[2H]C([2H])([2H])C(=O)Nc1ccccc1-c1ccc(N[C@H]2C[C@@H]3CN(CC4CCOCC4)C[C@@H]3C2)nn1", "Human M4 Emin (% ACh maximum at 30 μM), %": 4}
{"MOLECULE": "[2H]C([2H])(C1CCOCC1)N1C[C@H]2C[C@H](Nc3ccc(-c4ccc(NC(C)=O)cc4)nn3)C[C@H]2C1 (single isomer, unassigned)", "Human M4 Emin (% ACh maximum at 30 μM), %": 4}
